Cited source for all entries: a collection of fitness landscapes (doi:10.1126/science.1257360)

B1: PhoQ; a variant is named by its letters at X, in order, P23837 (parent)
chain: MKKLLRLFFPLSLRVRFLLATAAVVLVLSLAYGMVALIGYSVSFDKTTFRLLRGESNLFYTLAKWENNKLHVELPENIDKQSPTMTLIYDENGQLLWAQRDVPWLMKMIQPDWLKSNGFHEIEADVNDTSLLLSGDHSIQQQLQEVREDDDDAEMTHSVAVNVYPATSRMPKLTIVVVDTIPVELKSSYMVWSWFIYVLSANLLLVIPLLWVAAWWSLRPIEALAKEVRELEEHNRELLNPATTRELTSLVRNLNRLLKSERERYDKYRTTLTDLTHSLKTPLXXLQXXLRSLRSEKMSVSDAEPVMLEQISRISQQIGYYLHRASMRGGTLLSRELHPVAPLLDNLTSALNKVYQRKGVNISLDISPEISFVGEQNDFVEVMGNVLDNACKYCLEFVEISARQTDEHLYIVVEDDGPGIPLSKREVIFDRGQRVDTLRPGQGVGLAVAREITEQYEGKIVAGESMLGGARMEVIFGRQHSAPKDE

variants of: B1; assay: enrichment ratio after two sorts for PhoP signalling (ratio (wild type AVST 3.29)); higher = more functional; conditions: with PhoP (E. coli)
Over roughly 140,000 sequences, “enrichment ratio after two sorts for PhoP signalling” has its median near 0; the highest 2% begin near 11. For the sample, the highest values were picked, then their nearest neighbours and some sequences at random.
Would you please tag the item criterion met when its enrichment ratio is 9 or above, and criterion not met when it is below?

Please review the following examples before continuing.
# mutation descriptor, cat
rows = [
    ("SQPR", "criterion not met"),
    ("TEHM", "criterion met"),
    ("YPKW", "criterion not met"),
    ("PPTP", "criterion not met"),
]

Prompt: Does enrichment ratio meet or surpass 9 for KYHM ?
Completion: criterion not met

Prompt: Exam item: decide whether the reported enrichment ratio for GDNY is at least 9.
Completion: criterion not met

Prompt: Identify whether the reported enrichment ratio of the following variant is 9 or greater: GDVA
Completion: criterion not met

Prompt: Given the entry ANMR , answer whether its enrichment ratio meets or surpasses 9.
Completion: criterion not met

Prompt: Exam item: decide whether the reported enrichment ratio for GDTM is at least 9.
Completion: criterion not met

Prompt: hey, is enrichment ratio for this one >= 9? QEHM
Completion: criterion met
